Assay: Pharmacokinetic experiment: drug concentration in brain tissue of SD rats after oral administration (LC-MS/MS)
Settings: SD rats, oral, 10 mg/kg, brain tissue
Kindly state Cmax (Brain) for each of the entries shown.
All answers are understood in ng/g, so give the number only.

In: Report Cmax (Brain) for COCCOCCOCCOCCOCCOCCOc1ccc2c(c1)C1(C)CCCCCC(C2)C1N (stereo not shown)
Out: 147

In: Report Cmax (Brain) for COCCOCCOCCOCCOCCOCCN[C@H]1[C@H]2CCCCC[C@]1(C)c1cc(O)ccc1C2
Out: 166

In: Report Cmax (Brain) for C[C@@]12CCCCC[C@@H](Cc3ccc(O)cc31)[C@@H]2N [JK-2215D00, reference compound]
Out: 221

In: Report Cmax (Brain) for C[C@@]12CCCCC[C@@H](Cc3ccc(O)cc31)[C@@H]2NCCOCCOCCOCCOCCN[C@H]1[C@H]2CCCCC[C@]1(C)c1cc(O)ccc1C2 [JK-2215D03, Pentaethylene Glycol-Dezocine Conjugate]
Out: 129
